- assayed_target: human ether-à-go-go-related gene (hERG) potassium channel (human, UniProt Q12809);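 note: peak tail current of the secondary pulse compared with the same well before compound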
- Sequence (Q12809 whole entry, looked up): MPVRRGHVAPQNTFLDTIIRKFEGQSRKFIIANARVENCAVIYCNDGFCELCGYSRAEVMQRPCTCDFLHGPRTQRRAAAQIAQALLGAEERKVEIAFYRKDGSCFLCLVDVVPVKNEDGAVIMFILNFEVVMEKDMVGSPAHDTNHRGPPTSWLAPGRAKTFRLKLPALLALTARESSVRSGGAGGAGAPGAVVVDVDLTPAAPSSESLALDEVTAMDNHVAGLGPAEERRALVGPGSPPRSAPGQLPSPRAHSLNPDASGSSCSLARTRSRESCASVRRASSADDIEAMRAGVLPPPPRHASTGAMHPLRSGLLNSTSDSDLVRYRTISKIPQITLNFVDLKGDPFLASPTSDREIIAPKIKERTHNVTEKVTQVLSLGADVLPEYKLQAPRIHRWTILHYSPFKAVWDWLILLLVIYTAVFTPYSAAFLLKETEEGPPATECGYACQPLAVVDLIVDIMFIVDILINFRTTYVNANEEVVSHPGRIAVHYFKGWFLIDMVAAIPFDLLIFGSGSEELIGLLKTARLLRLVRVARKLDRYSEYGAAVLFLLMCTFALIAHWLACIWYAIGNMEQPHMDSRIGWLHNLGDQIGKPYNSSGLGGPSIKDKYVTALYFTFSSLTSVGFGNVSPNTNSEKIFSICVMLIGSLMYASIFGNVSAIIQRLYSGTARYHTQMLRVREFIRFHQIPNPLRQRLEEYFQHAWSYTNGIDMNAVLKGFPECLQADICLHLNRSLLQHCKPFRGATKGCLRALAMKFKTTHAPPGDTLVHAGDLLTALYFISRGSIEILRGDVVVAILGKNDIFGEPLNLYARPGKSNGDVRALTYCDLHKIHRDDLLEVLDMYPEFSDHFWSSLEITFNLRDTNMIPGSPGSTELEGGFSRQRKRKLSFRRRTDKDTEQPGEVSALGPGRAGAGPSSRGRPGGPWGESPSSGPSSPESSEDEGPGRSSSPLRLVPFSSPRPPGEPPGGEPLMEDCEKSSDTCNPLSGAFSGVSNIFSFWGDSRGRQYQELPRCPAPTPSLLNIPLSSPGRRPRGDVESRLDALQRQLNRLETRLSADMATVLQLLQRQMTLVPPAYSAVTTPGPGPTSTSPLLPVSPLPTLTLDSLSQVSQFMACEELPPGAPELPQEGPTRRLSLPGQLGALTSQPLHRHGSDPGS
- test_protocol: primary screen, population patch clamp on CHO cells stably expressing hERG; higher = less effect of the substance
- Procedure: Briefly, Chinese hamster ovary (CHO) cells stably expressing the hERG channel were dislodged from tissue culture flasks and dispensed into PPC plates. […] During the recording, background leak currents were estimated by a 100 ms step to -80 mV from an initial holding potential of -70 mV and subtracted from the subsequent current measurement. The campaign was conducted in two phases using slight differences in recording protocol. […]
About 14,000 (4.5%) of roughly 310,000 compounds showed an effect of 50% or more. Effects have a minus sign here. The sample as a whole holds a higher share of strong results than the screen did.
# Lookup of reported hERG current change (%, negative = inhibition) at 10uM keyed by entry
Report the figure in % without appending any unit label.

compound	reported_value
COc1cccc(OCCNS(=O)(=O)c2cccc([N+](=O)[O-])c2)c1	-8.19
C#CCOCCOCCOCCNc1nc(N2CCN(C(=O)[C@H](CCC(=O)O)n3cc(C(N)Cc4ccc(O)cc4)nn3)CC2)nc(N2CCN(C(=O)[C@H](Cc3cc4ccccc4[nH]3)n3cc(C(N)[C@H](C)CC)nn3)CC2)n1.Cl (stereo partly shown)	5.43

Query: Any idea what its hERG current change (%, negative = inhibition) at 10uM is? The compound is COC(=O)c1cccc(CSc2nnc(-c3ccco3)n2-c2ccccc2)c1
Result: -33.9

Query: Any idea what its hERG current change (%, negative = inhibition) at 10uM is? The compound is CNC(=O)COC(=O)c1cccnc1SC
Result: 3.53

---

# Lookup of reported hERG current change (%, negative = inhibition) at 10uM keyed by entry
- assayed_target: human ether-à-go-go-related gene (hERG) potassium channel (human, UniProt Q12809);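 note: peak tail current of the secondary pulse compared with the same well before compound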
- test_protocol: primary screen, population patch clamp on CHO cells stably expressing hERG; higher = less effect of the substance
The campaign covered roughly 310,000 compounds. About 14,000 (4.5%) showed an effect of 50% or more. Effects have a minus sign here. The sample holds strong results, similar compounds and a random draw of the others, so the mix is not that of the screen.
Report the figure in % without appending any unit label.

In [3]: df
Out[3]:
                                   molecule                            assayed_target  reported_value
0  CN1CCN(C(=O)/C(=C\c2cccs2)NC(=O)c2cccs2)CC1  human ether-à-go-go-related gene (hERG) potassium channel (human, UniProt Q12809)           -72.5
1  O=C(N/C(=C\c1cccs1)C(=O)N1CCOCC1)c1cccs1  human ether-à-go-go-related gene (hERG) potassium channel (human, UniProt Q12809)           -9.07
2  COc1ccc(NC(=O)COC(=O)c2n[nH]c3ccccc23)c(OC)c1  human ether-à-go-go-related gene (hERG) potassium channel (human, UniProt Q12809)            -4.2
3    COc1ccc(NC(=O)CN2CCN(Cc3ccccc3)CC2)cc1  human ether-à-go-go-related gene (hERG) potassium channel (human, UniProt Q12809)           -52.8
4  COc1ccc(C(=O)Nc2ccc(N3CCN(Cc4ccccc4)CC3)cc2)cc1  human ether-à-go-go-related gene (hERG) potassium channel (human, UniProt Q12809)           -4.78
5  COc1ccc(-n2c(SCC3CNC(=O)O3)nnc2-c2ccc(Cl)cc2)cc1 (stereo not shown)  human ether-à-go-go-related gene (hERG) potassium channel (human, UniProt Q12809)           -54.8

Proceeding to the next molecule to report its hERG current change (%, negative = inhibition) at 10uM.
Query: Value wanted: hERG current change (%, negative = inhibition) at 10uM (human ether-à-go-go-related gene (hERG) potassium channel (human, UniProt Q12809)) of entry O=C(O)CCc1ccc(-c2cccs2)n1NC(=O)c1cccs1
Result: 22.3
